Just for reference, patent US20120122727A1 is where these values come from.

Tested on: primary mouse hepatocytes
Test: Gene expression (Affymetrix Mouse Genome 430 2.0) in primary mouse hepatocytes, true vs false GTX, 24 h and 48 h
Conditions: 24 h average; log2, corrected for vehicle control
Listed here are molecules together with their documented Gene expression data AK004419 (Fbxl17).
Lab note: write the figure by itself, no unit.

CN(C)N=O | −1.22
Nc1ccc([N+](=O)[O-])cc1N | −0.0775
CC(=O)Nc1ccc2c(c1)Cc1ccccc1-2 | −0.168
O=c1c(O)c(-c2ccc(O)c(O)c2)oc2cc(O)cc(O)c12 | −0.01537
Nc1ccccc1C(=O)O | −0.01793

In the following, a different molecule is considered.
[in] Entry under review: `c1ccc2c(c1)cc1ccc3cccc4ccc2c1c34` . Reported Gene expression data AK004419 (Fbxl17)?
[out] −1.001
